B1: IKZF1 (parent)
chain: RDPFECNMCGYHSQDRYEFSSHIT

# Variants of: B1
# ASSAY METHOD TEXT: protein stability index of a GFP-peptide fusion (GPS, HEK-293T) (PSI 1-6); higher = more stable;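 note: lentivirally expressed fusions sorted by FACS into six bins by GFP to DsRed ratio, PSI derived from sequencing read proportions per bin multiplied by bin number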
# CONDITIONS: c terminus: a fixed tail appended
ASSAY METRIC: protein stability index
In your answer, state the number alone without any accompanying words.

These recorded examples may help you get a feel for the data.
# VARIANT STRING, ASSAY VALUE
measured = [
    ("F19D", 3.29),
    ("R16V", 2.42),
    ("F4H", 2.47),
    ("H22S", 1.88),
    ("E18K", 1.74),
]

protein stability index for C9V ? 3.06

Given the variant C6M , what is its reported protein stability index? 2.02

State the recorded protein stability index for this entry: D15H 1.68
